test system: HeLa; assay: Cytotoxicity against human HeLa cells after 48 hrs; type: functional, cell-based
IC50 by entry:
Write it as a number; the unit µM goes unstated.

CC(=O)O[C@H]1C[C@@H](OC(C)=O)[C@@]2(C)CO[C@@H]3[C@@H](O)[C@@]4(C)C5=CC[C@@H](c6ccoc6)[C@]5(C)CC[C@@H]4[C@]1(C)[C@@H]32 | 74
CC(=O)O[C@@H]1[C@H](O)[C@H]2C(C)(C)C(=O)C=C[C@]2(C)[C@H]2CC[C@]3(C)C(=CC[C@H]3[C@@H]3CC(=O)OC3=O)[C@]12C (relative stereo) | 95
CC(=O)O[C@@H]1[C@H](O)[C@H]2C(C)(C)C(=O)C=C[C@]2(C)[C@H]2CC[C@]3(C)C(=CC[C@H]3c3ccoc3)[C@]12C [NIMONOL] | 77

Could you now look at the following compound, please?
*Q* Data request, read-out IC50, for CC(=O)O[C@@H]1[C@H](O)[C@H]2C(C)(C)C(=O)CC[C@]2(C)[C@H]2CC[C@]3(C)C(=CC[C@H]3c3ccoc3)[C@]12C
*A* 74
